- System: SN12C renal
- MEASUREMENT_DESCRIPTION: NCI tumour cell line growth inhibition, 48 h
Each item that follows carries a reported GI50.

Known GI50 results, listed for orientation:
COMPOUND	GI50
NS(=O)(=O)N(c1cc(C(F)(F)F)cc(C(F)(F)F)c1)C1CCN(Cc2ccc(C(F)(F)F)cc2)CC1	6.86 µM
C/C=C(/C(=C/C)c1ccc(O)cc1)c1ccc(O)cc1	5.22 µM
O[C@H]1C=C2[C@H](C[C@@H]1O)CN1C[C@H]2c2cc3c(cc21)OCO3	18 µM
COc1ccc(/C=N/Nc2nc(N)nc(N3CCCC3)c2C#N)cc1	18.6 µM
CC1=C(C(=O)Nc2ccc(Cl)c(Cl)c2)C(c2ccccc2Cl)NC(=S)N1 (stereo not given)	8.53 µM
CCCCC/C=C/C(=O)CCc1ccc(O)c(OC)c1	7.99 µM
O=C(Nc1cccc(-n2cc(-c3ccncc3)c(-c3ccc(Cl)c(O)c3)n2)c1)Nc1cccc(C(F)(F)F)c1	2.01 µM
O=C1c2[nH]cc(CN3CCN(CCO)CC3)c2C(=O)c2c1c(O)c1ccccc1c2O	2.18 µM

Ask: // GI50 lookup, key: COC(=O)c1cc2cc(-c3ccc(OC)cc3)cnc2[nH]1
Result: 5.73 µM

Ask: What about O=C(C(Br)C(Br)c1ccccc1)C(Br)C(Br)c1ccccc1 (stereo not given) ?
Result: 1.78 µM

###

Each item that follows carries a reported TGI.
- Test system: MDA-MB-435
- MEASUREMENT_DESCRIPTION: NCI tumour cell line growth inhibition, 48 h

Known TGI results, listed for orientation:
COMPOUND	MEASUREMENT
CC(C)(C)c1cc2c(O)c(c1)C(c1ccccc1)c1cc(C(C)(C)C)cc(c1O)Cc1cc(C(C)(C)C)cc(c1O)C(c1ccccc1)c1cc(C(C)(C)C)cc(c1O)C2 (stereo not drawn)	> 100 µM
CCCCN(CCCC)CC(O)c1ccc(OCc2ccccc2)c2ccccc12 (stereo not drawn)	14 µM

Ask: // TGI lookup, key: COC(=O)[C@@H]1CCCN1C(=O)[C@@H]1CCCN1C(=O)[C@H](Cc1ccccc1)NC(=S)Nc1cc(C(F)(F)F)cc(C(F)(F)F)c1
Result: > 100 µM

###

- Tested on: ACHN renal
- MEASUREMENT_DESCRIPTION: NCI tumour cell line growth inhibition, 48 h
Each item that follows carries a reported GI50.

COMPOUND	GI50
CSc1nn2c(-c3ccc4ccccc4c3)ccnc2c1C#N	1.14 µM
O=C(C(Br)C(Br)c1ccccc1)C(Br)C(Br)c1ccccc1 (stereo not drawn)	0.253 µM
CC(C)(Oc1ccc(Cl)cc1)C(=O)NC1C2CC3CC1CC(NS(C)(=O)=O)(C3)C2 (stereo not drawn)	27.4 µM
CCN(CC)CCn1c(N)c(-c2nc3ccccc3n2C)c2nc(C#N)c(C#N)nc21	0.696 µM
COC(=O)c1c2c(c(C)[n+]([O-])c1C)C(=O)C(NCc1cccc(Cl)c1)=CC2=O	1.52 µM
CN(C)c1ccc(O)c2c1CC1CC3C(N(C)C)C(=O)C(C(N)=O)=C(O)C3(O)C(=O)C1=C2O (stereo not drawn)	8.4 µM
COc1ccc(CN2CCc3c(Sc4ccccc4)nc(N)nc3C2=O)c(OC)c1	7.25 µM
COc1cc(-c2cc(/C=C3\C(=O)Nc4ccc(Cl)cc43)[nH]n2)cc(OC)c1OC	3.46 µM

Ask: // GI50 lookup, key: C/C=C(/C(=C/C)c1ccc(O)cc1)c1ccc(O)cc1
Result: 9.64 µM

Ask: What about Cc1nn(-c2ccccc2)c(-n2ccnc2)c1/C=N/Nc1nc(-c2ccc(Cl)c(Cl)c2)cs1 ?
Result: 3.97 µM

Ask: What about CN1CCN(Cc2ccc(NC(=O)c3cnc(F)c(C#Cc4cnc(N)c5ncccc45)c3)cc2C(F)(F)F)CC1 ?
Result: 0.119 µM

Ask: What about O=c1ccc(N=Nc2ccccc2)ccc1Cl ?
Result: 3.11 µM

Ask: What about O=[N+]([O-])c1cc([N+](=O)[O-])c(N2CCCC2)cc1NN=C(c1ccc(O)cc1)c1ccc(O)cc1 ?
Result: 2.31 µM

Ask: What about CN1CCN(Cc2ccc(NC(=O)c3nc4ccc5[nH]ncc5c4c4c3CCCC4)cc2C(F)(F)F)CC1 ?
Result: 0.862 µM

This collection of values is drawn from PubChem BioAssay (NCI).
